Assay: Competitive inhibition of FAM-labelled PscF (69 to 85 residues) binding to Pseudomonas aeruginosa PscE/PscG by fluorescence polarization
measured metric: pIC50
Give bare numbers, as −log10 of the molar value.

[ask] Need pIC50, item Cc1cccc2c3c(ccc12)C1=C(C(=O)C3=O)[C@@H](C)CO1 [DIHYDROTANSHINONE I]
[reply] 6.17
